target: Adenosine A2a receptor (Homo sapiens); construct: expressed in transfected cells; host or cells: CHO cell membranes; assay: Adenosine receptor TR-FRET binding assay, A2a; details: Table 8; displacement of 100 nM CA200645, CHO cell membranes, Cheng and Prusoff
Result Type: log10 of Ki (log10 of the value in µM)
Short version: log10 scale, Ki, µM.

## Task Consider the compound shown here: COc1cccc(F)c1CNC(=O)c1cnc(-c2cccc(F)c2)nc1N [Example 5.2] What is its recorded log10 of Ki?
## Result -1.70

Next:
## Task Consider the compound shown here: COc1cccc(CNC(=O)c2cnc(-c3cccc(F)c3)nc2N)c1OC [Example 10.10] What is its recorded log10 of Ki?
## Result -1.02

###

Biological target: Adenosine A3 receptor (Homo sapiens, UniProt P0DMS8)
Construct: expressed in transfected cells; host or cells: CHO cell membranes
Sequence (P0DMS8 1-318): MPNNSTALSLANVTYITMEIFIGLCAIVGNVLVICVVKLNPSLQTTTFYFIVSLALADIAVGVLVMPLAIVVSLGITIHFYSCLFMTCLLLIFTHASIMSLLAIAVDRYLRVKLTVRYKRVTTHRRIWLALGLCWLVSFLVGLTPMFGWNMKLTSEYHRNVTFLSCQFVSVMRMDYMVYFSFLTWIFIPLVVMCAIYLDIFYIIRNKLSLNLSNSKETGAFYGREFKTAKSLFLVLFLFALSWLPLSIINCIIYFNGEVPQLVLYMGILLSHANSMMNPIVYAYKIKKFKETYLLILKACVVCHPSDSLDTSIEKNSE
Assay: Adenosine receptor TR-FRET binding assay, A3
Conditions: Table 9, further testing; displacement of 100 nM CA200645, CHO cell membranes; read-out: A3 Ki
Ki: recorded values
Express the result in nM but write the number alone.

## Task Consider the molecule shown here: Nc1nc(-c2ccco2)ncc1C(=O)NCc1cccc(C(F)(F)F)c1 [Example 5.29] What is its recorded Ki?
## Result 2460

## Task And Cc1cccnc1CNC(=O)c1cnc(-c2cccc(C#N)c2)nc1N [Example 12] ?
## Result 1030

## Task And Cc1cccnc1CNC(=O)c1cnc(-c2ccc(F)cc2)nc1N [Example 14] ?
## Result 202

## Task And Cc1cccnc1CNC(=O)c1nnc(-c2ccc(F)cc2)nc1N [Example 8] ?
## Result 24

Next:
## Task Consider the molecule shown here: Nc1nc(-c2cccc(F)c2)ncc1C(=O)NCc1cccc(C(F)(F)F)c1 [Example 10.11] What is its recorded Ki?
## Result 1850

###

molecular target: Adenosine A3 receptor (Homo sapiens, UniProt P0DMS8); construct: expressed in transfected cells; host or cells: CHO cell membranes; experiment: Adenosine receptor TR-FRET binding assay, A3
Result Type: pKi
Keep in mind that pKi stands for -log10 of concentration in molar terms.

## Task Consider the compound shown here: Nc1nc(-c2ccco2)ncc1C(=O)NCc1ncccc1Cl What is its recorded pKi?
## Result 5.93

## Task And COc1cc(CNC(=O)c2cnc(-c3cccc(F)c3)nc2N)cc(OC)c1 ?
## Result 5.93

Next:
## Task Consider the compound shown here: Nc1nc(-c2ccco2)ncc1C(=O)NCc1ncccc1C(F)(F)F What is its recorded pKi?
## Result 5.64

###

target: Adenosine A2a receptor (Homo sapiens); construct: expressed in transfected cells; host or cells: CHO cell membranes; assay: Adenosine receptor TR-FRET binding assay, A2a; conditions: Table 9, further testing; displacement of 100 nM CA200645, CHO cell membranes
Result Type: Ki

## Task Consider the compound shown here: Cc1cccnc1CNC(=O)c1c(N)nc(-c2ccco2)nc1OC[C@@H](C)O What is its recorded Ki?
## Result 0.099 nM

## Task And Nc1nc(-c2ccco2)ncc1C(=O)NCc1ccc2[nH]ccc2c1 ?
## Result 52 nM

## Task And CC(C)n1ncnc1CNC(=O)c1c(N)nc(-c2cccc(C#N)c2)nc1OCCF ?
## Result 1.08 nM

## Task And Cc1cccnc1CNC(=O)c1c(N)nc(-c2ccco2)nc1OC[C@H](C)O ?
## Result 0.11 nM

## Task And CCn1ccnc1CNC(=O)c1cnc(-c2cccc(F)c2)nc1N ?
## Result 42 nM

## Task And CCOC(=O)c1nnc(-c2ccco2)nc1N ?
## Result 61 nM

## Task And Nc1nc(-c2cccc(F)c2)ncc1C(=O)NCc1cccc(Cl)c1 ?
## Result 194 nM

---
## Task Consider the compound shown here: Cc1ccccc1CNC(=O)c1cnc(-c2cccc(F)c2)nc1N What is its recorded Ki?
## Result 150 nM

###

Molecular target: UniProtKB P30542
Sequence (P30542 1-326): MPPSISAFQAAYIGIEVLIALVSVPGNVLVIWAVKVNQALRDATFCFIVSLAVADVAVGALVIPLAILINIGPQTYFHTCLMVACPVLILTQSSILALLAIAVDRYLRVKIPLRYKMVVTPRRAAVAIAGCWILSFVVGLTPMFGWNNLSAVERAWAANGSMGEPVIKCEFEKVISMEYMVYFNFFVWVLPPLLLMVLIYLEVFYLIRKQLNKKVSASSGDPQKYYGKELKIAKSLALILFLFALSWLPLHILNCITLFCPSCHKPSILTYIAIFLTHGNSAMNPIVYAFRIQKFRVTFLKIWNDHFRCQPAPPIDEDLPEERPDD
Structures can show the parent of a compound that is named as a salt.
Result Type: Ki (nM)
Express the result in nM but write the number alone.

## Task Consider the compound shown here: Nc1nc(-c2cccc(F)c2)ncc1C(=O)NCc1c(Cl)cccc1Cl [Example 10.6] What is its recorded Ki?
## Result 231

---
## Task Consider the compound shown here: Cc1cccnc1CNC(=O)c1c(N)nc(-c2ccco2)nc1OC[C@@H](C)O [Example 20.13] What is its recorded Ki?
## Result 9

## Task And Cc1cccnc1CNC(=O)c1c(N)nc(-c2ccco2)nc1OCCCN [Example 23.5, dihydrochloride] ?
## Result 1060

## Task And COc1cccc(F)c1CNC(=O)c1cnc(-c2cccc(F)c2)nc1N [Example 5.2] ?
## Result 66

## Task And Cc1cc(C)cc(CNC(=O)c2cnc(-c3ccco3)nc2N)c1 [Example 5.39] ?
## Result 521

###

Ki: recorded values
target: Adenosine A2a receptor (Homo sapiens, UniProt P29274); construct: expressed in transfected cells; host or cells: CHO cell membranes; test: Adenosine receptor TR-FRET binding assay, A2a; settings: Table 8; displacement of 100 nM CA200645, CHO cell membranes, Cheng and Prusoff
Sequence (P29274 whole entry): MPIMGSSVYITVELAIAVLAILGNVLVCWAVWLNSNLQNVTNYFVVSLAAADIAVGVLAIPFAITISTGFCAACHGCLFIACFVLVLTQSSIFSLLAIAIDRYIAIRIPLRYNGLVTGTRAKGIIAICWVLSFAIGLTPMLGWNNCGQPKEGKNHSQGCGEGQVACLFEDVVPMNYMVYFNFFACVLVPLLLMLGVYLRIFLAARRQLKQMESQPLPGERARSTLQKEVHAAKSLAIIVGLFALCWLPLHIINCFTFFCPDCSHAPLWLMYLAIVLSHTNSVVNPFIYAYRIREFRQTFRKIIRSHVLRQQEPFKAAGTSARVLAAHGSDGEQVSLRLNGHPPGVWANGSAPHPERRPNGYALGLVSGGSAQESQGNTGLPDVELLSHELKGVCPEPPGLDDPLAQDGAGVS
Express the result in nM but write the number alone.

Some molecules with recorded Ki:
## Task Consider the molecule shown here: Cc1cccnc1CNC(=O)c1nnc(-c2cccc(F)c2)nc1N What is its recorded Ki?
## Result 11

## Task And Cc1cccnc1CNC(=O)c1cnc(-c2cccc(F)c2)nc1N ?
## Result 12

## Task And Cc1cccnc1CNC(=O)c1cnc(-c2ccco2)nc1N ?
## Result 1.7

## Task And Cc1cccnc1CNC(=O)c1cnc(-n2cccn2)nc1N ?
## Result 265

## Task And Nc1nc(-c2cccc(F)c2)ncc1C(=O)Nc1ccccc1 ?
## Result 112

## Task And Nc1nc(-c2cccc(F)c2)ncc1C(=O)NCc1ncccc1C(F)(F)F ?
## Result 29

## Task And COc1ccc(CNC(=O)c2cnc(-c3ccco3)nc2N)cc1 ?
## Result 495

## Task And Nc1nc(-c2ccco2)ncc1C(=O)NCc1ccccc1F ?
## Result 3.8

---
## Task Consider the molecule shown here: Nc1nc(-c2cccc(F)c2)ncc1C(=O)NCc1ccccn1 What is its recorded Ki?
## Result 76

## Task And Nc1nc(-c2ccco2)ncc1C(=O)NCc1ccccc1O ?
## Result 1.2

## Task And Cc1cccnc1CNC(=O)c1cnc(-c2ncco2)nc1N ?
## Result 34

## Task And Nc1nc(-c2ccco2)ncc1C(=O)NCc1ncccc1Cl ?
## Result 1.5

## Task And C[C@@H](NC(=O)c1cnc(-c2cccc(F)c2)nc1N)c1ccccc1 ?
## Result 329

## Task And Cc1cccnc1CNC(=O)c1nnc(-c2cccc(C#N)c2)nc1N ?
## Result 3.8

###

target: Adenosine A2a receptor (Homo sapiens, UniProt P29274); construct: expressed in transfected cells; host or cells: CHO cell membranes; assay: Adenosine receptor TR-FRET binding assay, A2a; settings: Table 8; displacement of 100 nM CA200645, CHO cell membranes, Cheng and Prusoff
Result Type: pKi
Keep in mind that pKi stands for -log10 of concentration in molar terms.

Some compounds with recorded pKi:
## Task Consider the compound shown here: CCOc1cccc(F)c1CNC(=O)c1cnc(-c2cccc(F)c2)nc1N What is its recorded pKi?
## Result 7.70

## Task And Nc1nc(-c2ccco2)ncc1C(=O)NCc1ccc(F)cc1 ?
## Result 7.48

## Task And NC(=O)c1nnc(-c2cccc(F)c2)nc1N ?
## Result 6.25

Next:
## Task Consider the compound shown here: Nc1nc(-c2ccco2)ncc1C(=O)NCc1c(Cl)cccc1Cl What is its recorded pKi?
## Result 9.03
